# Tested on: M14 melanoma
# ASSAY INFO: NCI-60 one-dose screen, 48 h
# EXPERIMENTAL CONDITIONS: 10 µM unless noted
This is part of a sample that, as a whole, favours compounds with a hit. Of some 83,000 tested, about 20% had one in any assay. The source made the active and inactive calls. The calls were made as follows: active = growth percent below 10; inactive = the rest.
Outcome (select one): active, inactive

// outcome(item) with item = Cc1c(Cl)cccc1NS(=O)(=O)c1ccccc1
inactive

Hi, sorry to bother you, what did the test record for O=C1CCC(N2C(=O)c3cccc(NCCCC4CCN(CCNC(=O)c5cc6c(o5)C(=O)c5ccccc5C6=O)CC4)c3C2=O)C(=O)N1 (stereo not drawn) ?
active

Test call for this compound, please: COc1ccc(Oc2nc(Nc3ccc(N4CCCCC4)nc3)ncc2NC(=O)c2cc(OC)cc(OC)c2)cc1
inactive

Fill in: this test's call for O=C1Nc2ccccc2/C1=N/N=C/c1c[nH]c2ccccc12 is ___
inactive

How was O=C1Nc2ccccc2SC1c1ccccc1Cl (stereo not drawn) classified in this test?
inactive

GET /call?item= O=C1Nc2ccccc2/C1=N/N=C/c1ccc(OC2OC(CO)C(O)C(O)C2O)cc1 (stereo not drawn) returns the recorded outcome of this test.
inactive

Please share the test call associated with CC(C)(C)N1CC(OC(N)=O)C1 .
inactive

Which outcome was entered for the compound NC(=O)c1c(NC(=O)c2ccccn2)sc2c1CCC(=O)C2 in this test?
inactive

Recorded test call requested for CCNCCNc1cc(-c2ccc(Cl)cc2)c(C#N)c2nc3ccccc3n12
active

Status in this test for CNC(=O)NCC1OC(n2cnc3c(NC(=O)Nc4ccccc4)ncnc32)C2OC(C)(C)OC12 (stereo not drawn) ?
inactive

Just curious, what result did C=C1c2c(C)nn(-c3ccc(N)cc3)c2N(C)C23CC1C1(C)c4c(C)nn(-c5ccc(N)cc5)c4N(C)C(C)(CC12)C3 (stereo not drawn) get here?
inactive

Identify the outcome logged in this assay for the compound shown: COc1cc2nc(Nc3ccc(F)cc3)nc(N)c2cc1OC
inactive

For COc1ccc(Nc2ncc(Br)c(NCCCNC(=O)C3CCC3)n2)cc1 , what call appears in the results of this test?
inactive

Recorded call for COc1cc2ccccc2cc1C(=O)NC(=S)Nc1ccc(-c2nc3ccccc3[nH]2)cc1 ?
inactive

Given CCOC(=O)C1=C(C)NC(SCc2nnc(-c3ccc(Cl)cc3)o2)=NC1c1ccc(Cl)cc1Cl (stereo not drawn) , state the outcome it received in this test.
inactive

Per the records of this test, what outcome belongs to CCc1c(C(=O)N[C@@H]2c3cc(Cl)ccc3CC[C@@H]2O)[nH]c(C)c1C(C)=O ?
inactive

For CN(C)CN1CCN(c2ccc3nc(-c4ccc5nc(-c6ccc(C(F)(F)F)cc6)[nH]c5c4)[nH]c3c2)CC1 , which call appears in the assay record?
inactive

Would you mind telling me which call this test gave COc1cc2c(cc1OC)-c1ccc3cc4c(cc3c1N(CCN1CCCC1)C2)OCO4 ?
inactive

* * *

# System: SW-620 colon
# ASSAY INFO: NCI-60 one-dose screen, 48 h
# EXPERIMENTAL CONDITIONS: 10 µM unless noted
About 83,000 compounds went through this panel and 20% of them were active in at least one assay; those are over-represented in the sample as a whole. The source made the active and inactive calls. The calls were made as follows: active = growth percent below 10; inactive = the rest.
Write down one outcome, taken from active, inactive

Call for entry CO[C@H]1/C=C/O[C@@]2(C)Oc3c(C)c(O)c4c(c3C2=O)C(=O)C(/C=N/N(c2ccccc2)c2ccccc2)=C(NC(=O)/C(C)=C\C=C\[C@H](C)[C@H](O)[C@@H](C)[C@@H](O)[C@@H](C)[C@H](OC(C)=O)[C@@H]1C)C4=O :
active

// param item: CCCCOc1ccc(NC(=O)n2nc(N=NN(C)C)c3ccc(Cl)cc32)cc1 ; yields the recorded call
inactive

Please indicate how the test categorized CN1CCN(C(=O)[C@]23CCC(C)(C)C[C@@H]2C2=CC[C@@H]4[C@@]5(C)Cc6c([nH]c7ccccc67)C(C)(C)[C@@H]5CC[C@@]4(C)[C@]2(C)CC3)CC1 .
inactive

Could you please tell me the result logged for CC1(C)C(=O)/C(=C\c2cccnc2)C[C@]2(C)[C@H]3CC=C4[C@@H]5C[C@@](C)(C(=O)O)CC[C@]5(C)CC[C@@]4(C)[C@]3(C)CC[C@@H]12 in this assay?
inactive

Hi team, can someone confirm the assay call for Clc1ccc2c(NCCCN3CCN(c4nc(N5CCOCC5)nc5ccccc45)CC3)ccnc2c1 ?
active

What outcome does the record of this test show for O=C(C[C@@]1(O)C(=O)Nc2c(Cl)ccc(Cl)c21)c1ccc(C2CC2)cc1 ?
inactive

So what was the verdict on C=C(CNCCc1ccc(O)cc1)[C@@H]1CC[C@]2(COC3CCCCO3)CC[C@]3(C)[C@H](CC[C@@H]4[C@@]5(C)CCC(NCCO)C(C)(C)[C@@H]5CC[C@]43C)[C@@H]12 (some centres not stated) in this test?
active

# lookup: test call for Clc1ccc(-c2nnc(Cn3ccnc3)o2)cc1
inactive

Tell me the recorded outcome of this test for c1ccc2c(c1)ncn2-c1nc2ccccc2n2c1nc1ccccc12 .
inactive

What call does the record list for CCOC(=O)c1ccc(-c2ccc3cc(OC)ccc3c2)nc1C ?
inactive

Name the outcome recorded for COc1ccc(N=c2nc3sc4cc(Cl)ccc4n3c(N)c2C#N)cc1 in the assay.
inactive

Status in this test for COc1ccc(OC)c(C(=O)Nc2cccc(-c3cc(=O)c4ccccc4o3)c2)c1 ?
inactive

Would you mind telling me which call this test gave Cc1nc2ccccc2c(/C=C/c2ccc(Cl)cc2)c1C(=O)/C=C/c1ccc(Cl)cc1 ?
active

Assay outcome for CCCc1cc(=O)oc2c3c(c4c(c12)OC(C)(C)C=C4)O[C@@H](C)[C@H](C)C3=O : what was it?
inactive

Tell me the recorded outcome of this test for O=C(/C=C/C12c3ccccc3C(c3ccccc31)C1C(=O)N(c3ccccc3)C(=O)C12)c1ccc(Cl)cc1 (configuration not stated) .
active

Give the logged outcome of this assay for the following molecule: COc1ccc(-c2cc(-c3ccc(Nc4nc(Nc5ccccc5)nc(Nc5ccc(Cl)cc5)n4)cc3)nc(N)c2C#N)cc1
active

Lab log entry: N#Cc1c(N)n2c(nc1=Nc1ccc(Cl)cc1)sc1cc(Cl)ccc12 — outcome as called in the assay?
inactive
